Target: T1, APJ (orphan G protein-coupled receptor protein)
T1 chain: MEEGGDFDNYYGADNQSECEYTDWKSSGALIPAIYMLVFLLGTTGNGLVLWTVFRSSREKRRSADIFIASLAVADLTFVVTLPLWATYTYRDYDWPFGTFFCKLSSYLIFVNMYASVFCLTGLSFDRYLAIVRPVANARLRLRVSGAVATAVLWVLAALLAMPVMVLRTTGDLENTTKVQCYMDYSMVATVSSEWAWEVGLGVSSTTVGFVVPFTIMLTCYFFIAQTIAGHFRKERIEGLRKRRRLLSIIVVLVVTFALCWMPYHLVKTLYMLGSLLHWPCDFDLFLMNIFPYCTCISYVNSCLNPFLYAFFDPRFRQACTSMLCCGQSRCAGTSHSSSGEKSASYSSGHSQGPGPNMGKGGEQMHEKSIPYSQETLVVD
Test: cell-based or functional assay
Starred links: 1 amine or outer side, 2 acyl side, 3 side chain; linkers in the order of their positions; H or OH if unused. Non-standard residues stand in square brackets, D forms with d. No end group written: not given here. Pyn = 1-pyrenylalanine, O=C([C@H](Cc1ccc2ccc3cccc4ccc1c2c34)N[*:1])[*:2]; Lys(Me2) = CN(C)CCCC[C@H](N)C(=O)O; Cha = N[C@@H](CC1CCCCC1)C(=O)O
OBSERVED_PROPERTY: EC50, inhibition of forskolin-stimulated cAMP production (CHO-A10 clone 6 cells) (pM)

Take a look at these entries with their results.
I would be grateful if you could share the reported EC50, inhibition of forskolin-stimulated cAMP production (CHO-A10 clone 6 cells) for RPRLSARGP[Cha][Pyn] (not fully specified; printed as Arg-Pro-Arg-Leu-Ser-Ala-Arg-Gly-Pro-Cha-Pyn, also called Compound in Ex. 60) [Arg-Pro-Arg-Leu-Ser-Ala-Arg-Gly-Pro-Cha-Pyn] .
1100

I would be grateful if you could share the reported EC50, inhibition of forskolin-stimulated cAMP production (CHO-A10 clone 6 cells) for RP[Lys(Me2)]LSARGPMPF (also called Compound in Ex. 63) [Arg-Pro-Lys(Me)2-Leu-Ser-Ala-Arg-Gly-Pro-Met-Pro-Phe] .
330

I would be grateful if you could share the reported EC50, inhibition of forskolin-stimulated cAMP production (CHO-A10 clone 6 cells) for RPRLSA[Lys(Me2)]GPMPF (also called Compound in Ex. 64) [Arg-Pro-Arg-Leu-Ser-Ala-Lys(Me)2-Gly-Pro-Met-Pro-Phe] .
380

1. RRQRPRLSARGG[Cha] (not fully specified; printed as Arg-Arg-Gln-Arg-Pro-Arg-Leu-Ser-Ala-Arg-Gly-Gly-Cha, also called Compound in Ex. 62) [Arg-Arg-Gln-Arg-Pro-Arg-Leu-Ser-Ala-Arg-Gly-Gly-Cha]
2. RPRLSARGP[Cha]P[Pyn] (not fully specified; printed as Arg-Pro-Arg-Leu-Ser-Ala-Arg-Gly-Pro-Cha-Pro-Pyn, also called Compound in Ex. 61) [Arg-Pro-Arg-Leu-Ser-Ala-Arg-Gly-Pro-Cha-Pro-Pyn]
Of 1 versus 2 , which is the one with smaller reported EC50, inhibition of forskolin-stimulated cAMP production (CHO-A10 clone 6 cells)? Mark your answer with the label of the selected entry.
1
(1: 230 pM, 2: 2200 pM)
